tested on: IL-6; test: Inhibition of IL-6 in LPS-stimulated human monocyte cells (THP-1), HTRF; format: cell-based; conditions: Homo sapiens; THP-1 cells, LPS 500 ng/mL, IL-6 by HTRF
pEC50: −log10 of the molar value.
Use Criterion met when the recorded pEC50 is no lower than 7; use Criterion not met when it is lower.

Reference set, count: 5
In [3]: df
Out[3]:
                              smiles_record   class_assignment
0  CC(C)CC(=O)Nc1cncc(-c2ccc3[nH]nc(-c4nc5c(-c6ccc(F)cc6)cncc5[nH]4)c3c2)c1      Criterion met
1  CN(C)Cc1cncc(-c2ccc3[nH]nc(-c4nc5c(-c6ccccn6)cncc5[nH]4)c3c2)c1  Criterion not met
2  O=C(Nc1cncc(-c2ccc3[nH]nc(-c4nc5c(N6CCCCC6)cncc5[nH]4)c3c2)c1)C1CCC1      Criterion met
3  CN1CCN(c2cncc3[nH]c(-c4n[nH]c5ccc(-c6cncc(N)c6)cc45)nc23)CC1  Criterion not met
4  CCC(=O)Nc1cncc(-c2ccc3[nH]nc(-c4nc5c(-c6cncc(F)c6)cncc5[nH]4)c3c2)c1      Criterion met

// next entry
Exam item: Determine whether measured pEC50 meets or exceeds 7 for `Cc1ccncc1-c1ccc2[nH]nc(-c3nc4c(-c5ccsc5)cncc4[nH]3)c2c1`
Marked response: Criterion met
